Short version: logP at least 0.7 is True, less is False.

Is the recorded value of logP equal to or greater than 0.7 for this compound? CC(=O)NNC(=O)Nc1cccc(Cl)c1
True

Can CC(=O)NNC(=O)Nc1ccc(Cl)cc1 be said to have logP at or above 0.7?
True

Determine whether measured logP meets or exceeds 0.7 for CC(=O)NNC(=O)Nc1ccccc1
False

Please indicate if the recorded logP for CC(=O)NNC(=O)Nc1ccc([N+](=O)[O-])cc1 meets or exceeds 0.7.
True

# check: logP of CC(=O)NNC(=O)Nc1ccc(C)cc1 is greater than or equal to 0.7
False

Check this compound for logP at or above 0.7: CC(=O)NNC(=O)Nc1cccc(F)c1
True

Does logP meet or surpass 0.7 for CC(=O)NNC(=O)Nc1ccc(Br)cc1 ?
True

Entry CC(=O)NNC(=O)Nc1ccc(Oc2ccccc2)cc1 : is its logP no less than 0.7?
True

###

// classify: if (logP < 0.7) Met else Not met

Please determine if CC(=O)NNC(=O)Nc1cccc(C(F)(F)F)c1 is below 0.7 in terms of logP.
Not met

Quick check: logP of CC(=O)NNC(=O)Nc1cccc(C)c1 under 0.7?
Not met

I'd appreciate it if you could check whether CC(=O)NNC(=O)Nc1ccc(O)cc1 has logP smaller than 0.7.
Met

Is it true that logP reported for CC(=O)NNC(=O)Nc1ccc(C(C)(C)C)cc1 is less than 0.7?
Not met

Given CC(=O)NNC(=O)Nc1cccc(I)c1 , is recorded logP strictly lower than 0.7?
Not met

Lab note: confirm whether the reported logP for this compound is below 0.7, equality not counting. compound: CC(=O)NNC(=O)Nc1ccc(F)cc1
Met

Is logP strictly under 0.7 for the entry COc1ccc(NC(=O)NNC(C)=O)cc1 ?
Met

Dear reviewer, please state whether COc1cccc(NC(=O)NNC(C)=O)c1 has logP strictly beneath 0.7.
Met

Please let me know if CC(=O)NNC(=O)Nc1ccc(C#N)cc1 shows logP below 0.7.
Met

Take the compound CC(=O)NNC(=O)Nc1cccc([N+](=O)[O-])c1 and say whether its logP is less than 0.7.
Met

Answer whether the compound CCOc1ccc(NC(=O)NNC(C)=O)cc1 has logP strictly less than 0.7
Met

Report whether reported logP is lower than 0.7 (strictly) for CC(=O)NNC(=O)Nc1ccc(N(C)C)cc1
Met

Criterion: logP strictly below 0.7. Is it met by CC(=O)NNC(=O)Nc1cccc(Br)c1 ?
Not met

Does the reported logP of CC(=O)NNC(=O)Nc1ccc(I)cc1 stay below 0.7?
Not met
